Record form. Attribute: z-score. Fill in for each entry.
Experiment: qHTS for identification of novel therapeutic agents for treatment of microphthalmiaassociated transcription factor (MiT) renal cell carcinoma (RCC) (AID 1963991);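 note: curves scaled with 100% = DMSO viability and 0% = empty wells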
Conditions: TFE3-RCC UOK109 viability, CellTiter-Glo, 48 h; measured here: UOK109 Z-AUC; stronger effect = lower value
Procedure: PI: Marston Linehan Ph.D. Urologic Oncology Branch, Center for Cancer Research (CCR) National Cancer Institute (NCI), National Institute of Health (NIH), Bethesda, Maryland […] 6; Detection; Luminescence; ViewLux plate reader (PerkinElmer). […] 1. Quantitative high-throughput screening (qHTS) of 1912 pharmacologically defined small molecule compounds was conducted on three TFE3-fusion cell lines bearing three different fusion partners (UOK109, UOK124, UOK145). […]
Records with an inconclusive call do not appear.
Answers are plain numbers.

Examples from the recorded data:
compound: Nc1c2c(nc3ccccc13)CCCC2
recordedResult: 1.01
--
compound: Cc1ccccc1N1C(=O)c2cc(S(N)(=O)=O)c(Cl)cc2NC1C (centres undefined)
recordedResult: 0.956
--
compound: CC(C)Cc1ccc(C(C)C(=O)O)cc1 (centres undefined)
recordedResult: 0.767
--
compound: O=C1c2c(O)ccc(O)c2C(=O)c2c(NCCNCCO)ccc(NCCNCCO)c21
recordedResult: -2.02
--
compound: CCOC(=O)Nc1ccc(NCc2ccc(F)cc2)nc1N
recordedResult: 0.955
--
compound: COC(=O)Nc1nc2ccc(C(=O)c3cccs3)cc2[nH]1
recordedResult: -2.2

Take each entry in turn and give its z-score.
1. Cc1cn([C@H]2C=C[C@@H](CO)O2)c(=O)[nH]c1=O
2. CN(C)C(=N)N=C(N)N
3. CC1(C)O[C@H]2CC(=O)OC[C@]23[C@H]2CC[C@@]4(C)[C@H](c5ccoc5)OC(=O)[C@H]5O[C@]54[C@]2(C)C(=O)C[C@@H]13

1. 0.266
2. 0.797
3. 0.617
